Hey, just so you know, these numbers are from the RNAGym collection of RNA variant scans (doi:10.7554/elife.80360).

B1: HDV Ribozyme (parent)
chain: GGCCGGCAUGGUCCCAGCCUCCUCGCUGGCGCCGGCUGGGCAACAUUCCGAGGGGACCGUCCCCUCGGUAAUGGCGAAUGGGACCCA

# Variants of: B1
# EXPERIMENT: self-cleavage, relative activity (ratio to wild type); higher = more cleavage; co-transcriptional
# binarize self-cleavage: threshold 0.8 inclusive, high side Condition met, low side Condition not met

* A51C A87C | Condition met
* A51U C85G | Condition met
* C32G G54U | Condition not met
* C4U C64U | Condition not met
